src = PubChem BioAssay (NCI)

Each item that follows carries a reported growth inhibition.
procedure-details: NCI Yeast Anticancer Drug Screen. Data for the cln2 rad14 strain (AID 165);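 also: 0% = growth equal to vehicle treated cultures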
protocol-conditions: S. cerevisiae cln2 rad14 strain, at 5.0 µM (retest, dose inferred, filed as 0.5), stronger effect = higher value
Protocol: Growth inhibition of yeast strains with defined genetic alterations is measured as a screen for potential anti-cancer activity. Selected strains with alterations in DNA damage repair or cell cycle control were exposed to compounds and growth inhibition was measured relative to vehicle treated controls. The strain used in this assay is cln2 rad14
This is part of a sample that, as a whole, favours compounds with a hit. Of some 79,000 tested, about 15% had one in any assay. Calls of active or inactive are those of the source. Rule as the data show it: active = growth inhibition above about 70%; inactive = the rest.

Example cases with answers are listed next.
CCOC(=O)c1ccc(NC(=O)O/N=C(/Cl)CC)cc1 :: 35% (inactive)
CC(C)(Br)C(=O)/C=C/c1ccc(Cl)cc1 :: 89% (active)
CC1(c2ccc3ccccc3c2)C(C#N)(C#N)C1(C#N)C#N :: 62% (inactive)
CC(COC(=O)C(c1ccccc1)C1C=CCCC1)CN1CCCC1 (stereo unspecified) :: 4% (inactive)
O=C1/C(=C/c2ccccc2[N+](=O)[O-])COc2ccccc21 :: 28% (inactive)

Lookup: So what does the record say about growth inhibition for "O=C1C(=O)c2cc(Br)cc([N+](=O)[O-])c2-c2ccc(Br)cc21" ?
Found: 21% (inactive)

Lookup: Same lookup for "O=C(C[N+]12CN3CN(CN(C3)C1)C2)c1ccc(Cl)cc1Cl" , please.
Found: -1% (inactive)

Lookup: Same lookup for "O=S(=O)(Nc1ccccc1)c1ccccc1C#Cc1ccccc1" , please.
Found: -70% (inactive)

Lookup: Same lookup for "Nc1ccc2nc(Nc3ccc(F)cc3)cnc2c1" , please.
Found: 17% (inactive)

Lookup: Same lookup for O=C1Nc2ccccc2C(=O)C1(Cc1ccccc1)C(=O)c1ccccc1 (stereo unspecified) , please.
Found: -1% (inactive)

Lookup: Same lookup for "O=[N+]([O-])c1cc(I)cc(/C=N/NS(=O)(=O)c2ccc(F)cc2)c1O" , please.
Found: 0% (inactive)

---

procedure-details: NCI Yeast Anticancer Drug Screen. Data for the bub3 strain (AID 167)
protocol-conditions: S. cerevisiae bub3 mutant strain, at 50.0 µM (retest, dose inferred, filed as 5.0), stronger effect = higher value
This is part of a sample that, as a whole, favours compounds with a hit. Of some 79,000 tested, about 15% had one in any assay.
endpoint: growth inhibition (%)
Quick reminder: number only, in %, skip the unit.

Example cases with answers are listed next.
CC(C)(C)C1CCC(SCCO)CC1 (configuration not stated) :: 98
Nc1ccc2c(c1)[nH]c(=O)c1cc(Cl)c(Cl)cc12 :: 84
Cc1ccc(S(=O)(=O)N/N=C2/CC[C@H](C(C)(C)C)C[C@@H]2C)cc1 :: 97
CN(C)C(=S)SC1(CN2CCOCC2)COc2c(Cl)cc(Cl)cc2C1=O (configuration not stated) :: 96
c1ccc(Nc2cccc3ccccc23)cc1 :: 95

Lookup: So what does the record say about growth inhibition for "Cc1cccc(NC(=O)Oc2ccc(Cl)c3cccnc23)c1" ?
Found: 67

Lookup: Same lookup for "O=C1/C(=C/N2CCN(c3ccccc3)CC2)Cc2c(Cl)cccc21" , please.
Found: 33

Lookup: Same lookup for COC(=O)CCC(C)C1CCC2C3CCC4CC(SC(=N)N)CCC4(C)C3CC(O)C12C (configuration not stated) , please.
Found: 99

Lookup: Same lookup for "C1=CC2OC1c1cc3ccccc3cc12" , please.
Found: 97

Lookup: Same lookup for "CCOC(=O)/C(=N/NS(=O)(=O)c1c(C)cc(C)cc1C)c1ccco1" , please.
Found: 29

Lookup: Same lookup for "O=C1Nc2c(Cl)cc(Cl)cc2/C1=N/N=C/c1ccccc1O" , please.
Found: 54

Lookup: Same lookup for "NC(N)=Nc1ccc(N=C(N)N)cc1" , please.
Found: 3

---

procedure-details: NCI Yeast Anticancer Drug Screen. Data for the sgs1 mgt1 strain (AID 161);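 also: 0% = growth of cultures given vehicle only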
protocol-conditions: S. cerevisiae sgs1 mgt1 strain, at 50.0 µM (retest, dose inferred, filed as 5.0), stronger effect = higher value
The panel holds about 79,000 compounds, 15% with a hit somewhere; the sample as a whole holds those more often. Where a SMILES comes first, the peptide text is derived from it. The star is where a group is joined. Trt = c1ccc(C(c2ccccc2)(c2ccccc2)*)cc1; Cbz = O=C(OCc1ccccc1)*
Note to self: values exactly at 80% are y. So growth inhibition at or above 80% is y, below is n.

See these solved cases before continuing.
O=C(Nc1c(Cl)cccc1Cl)OCc1ccc2c(c1)OCO2 :: n
CC(C)C1/C(=N/O)CC(c2ccccc2)N(N=O)C1c1ccccc1 (stereo unspecified) :: y

Lookup: Textbook exercise: given the entry "COc1ccc(-c2c(COC(C)=O)c(COC(C)=O)c3n2CCC3)cc1" , state whether its growth inhibition is greater than or equal to 80%.
Found: n

Lookup: Same lookup for "NC(=O)C1CCN(N=Nc2c(-c3ccccc3)n[nH]c2-c2ccccc2)CC1" , please.
Found: y

Lookup: Same lookup for CCOC(=O)CCC(NC(=O)C(CSC(c1ccccc1)(c1ccccc1)c1ccccc1)NC(=O)OCc1ccccc1)C(=O)NC(CCC(=O)OCC)C(=O)NC(CCC(=O)OCC)C(=O)NC(CCC(=O)OCC)C(=O)NC(CSC(c1ccccc1)(c1ccccc1)c1ccccc1)C(=O)OC (stereo unspecified) (Cbz-C(Trt)E(OEt)E(OEt)E(OEt)E(OEt)C(Trt)-OMe; configuration not given here) , please.
Found: n

---

procedure-details: NCI Yeast Anticancer Drug Screen. Data for the bub3 strain (AID 167)
protocol-conditions: S. cerevisiae bub3 mutant strain, at 50.0 µM (retest, dose inferred, filed as 5.0)
This is part of a sample that, as a whole, favours compounds with a hit. Of some 79,000 tested, about 15% had one in any assay. Active and inactive are the calls of the source. Cut-off read from the data, not from the text of the source: active = growth inhibition above about 70%; inactive = the rest.
Mark one answer only. Choices: t for active, f for inactive

See these solved cases before continuing.
BrCc1ccc2ccc3ccc(CBr)nc3c2n1 :: t
CCN(CC)Cc1cc(Nc2c3ccccc3nc3c4ccccc4n(C)c23)ccc1O :: f
CCCC(=O)Oc1ccc([N+](=O)[O-])cc1 :: f
Oc1c2c(c(O)c3ncccc13)C1C=CC2CC1 (centres undefined) :: t
COc1cc(C2OC(=O)c3ccccc3S2)ccc1O (centres undefined) :: t

Lookup: Returns: the outcome recorded for CCC(c1ccc(Cl)cc1)C(C#N)c1ccccc1 (centres undefined) in this assay.
Found: f

Lookup: Same lookup for CCCCCOC(=O)C1C(=O)CC(c2ccccc2)C1c1ccccc1 (centres undefined) , please.
Found: t

Lookup: Same lookup for "O=C(/C=C/c1ccc2c(c1)OCO2)c1ccc(O)cc1" , please.
Found: f

Lookup: Same lookup for "C1Cc2c3c4c(c5c2C(C1)CCC5)CCCC4CCC3" , please.
Found: f

Lookup: Same lookup for COc1ccc(C2COc3c(ccc(O)c3O)C2)cc1OC (centres undefined) , please.
Found: f

---

procedure-details: NCI Yeast Anticancer Drug Screen. Data for the sgs1 mgt1 strain (AID 161);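 also: 0% = growth of cultures given vehicle only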
protocol-conditions: S. cerevisiae sgs1 mgt1 strain, at 50.0 µM, stronger effect = higher value
The panel holds about 79,000 compounds, 15% with a hit somewhere; the sample as a whole holds those more often.
endpoint: growth inhibition (%)
Quick reminder: number only, in %, skip the unit.

Lookup: So what does the record say about growth inhibition for "CS(=O)(=O)OCCN(CCOS(C)(=O)=O)c1ccc(C=Nc2ccc(-c3csc(-c4ccc(Br)cc4)n3)cc2)c(Cl)c1" ?
Found: 92.3

Lookup: Same lookup for O=C(O)C1CCc2ccc3ccccc3c2C1c1cccc2ccccc12 (stereo unspecified) , please.
Found: 97.7

Lookup: Same lookup for "Cc1ccc(Sc2ccc(C)cc2[N+](=O)[O-])c([N+](=O)[O-])c1" , please.
Found: 66.2

---

procedure-details: NCI Yeast Anticancer Drug Screen. Data for the rad50 strain (AID 155);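 also: 0% = growth of vehicle-only cultures of the same strain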
protocol-conditions: S. cerevisiae rad50 strain growth inhibition; at 50.0 µM
About 79,000 compounds went through this panel and 15% of them were active in at least one assay; those are over-represented in the sample as a whole. Active and inactive are the calls of the source. No stated cut-off is given here; in the data, active means growth inhibition above about 70%; inactive means the rest.
Mark one answer only. Choices: TRUE for active, FALSE for inactive

See these solved cases before continuing.
CCC(C)(C)c1ccc(OC(=O)C(C)OC(C)=O)cc1 (configuration not stated) :: TRUE
C/C(=N\O)c1ccc2c3c(ccc([N+](=O)[O-])c13)CC2 :: FALSE
OB1c2ccccc2CCc2ccccc21 :: TRUE

Lookup: Returns: the outcome recorded for "O=C(NC1(OC(=O)c2ccc(Cl)cc2)CC1)c1ccc(Cl)cc1" in this assay.
Found: TRUE

Lookup: Same lookup for "CCNC(=S)N/N=C/c1ccccn1" , please.
Found: TRUE

Lookup: Same lookup for "Cc1ccccc1CN(C)CCO" , please.
Found: FALSE

Lookup: Same lookup for COC1OC(COC(=O)c2ccccc2)CC1F (configuration not stated) , please.
Found: TRUE

Lookup: Same lookup for "Cc1ccc(S(=O)(=O)c2cc(O)c(O)c3ccc(Br)cc23)cc1" , please.
Found: TRUE

Lookup: Same lookup for "Clc1ccc([I+]c2cccs2)cc1" , please.
Found: TRUE

Lookup: Same lookup for O=C(Nc1ccc(Cl)cc1Cl)OC(Cn1cncn1)c1ccc(Cl)cc1Cl (configuration not stated) , please.
Found: TRUE

Lookup: Same lookup for "CO[C@H]1C[C@@H]2CC[C@@H](C)[C@@](O)(O2)C(=O)C(=O)N2CCCC[C@H]2C(=O)O[C@H]([C@H](C)C[C@@H]2CC[C@@H](OC(=O)C(C)(CO)CO)[C@H](OC)C2)CC(=O)[C@H](C)/C=C(\C)[C@@H](O)[C@@H](OC)C(=O)[C@H](C)C[C@H](C)/C=C/C=C/C=C/1C" , please.
Found: TRUE

Lookup: Same lookup for CCN(CC)c1ccc(NC(C(=O)c2ccccc2)c2ccc3c(c2)OCO3)cc1 (configuration not stated) , please.
Found: FALSE

Lookup: Same lookup for "O=[N+]([O-])c1c(C=Nc2ccccc2)oc(-c2c(O)ccc3ccccc23)c1-c1c(O)ccc2ccccc12" , please.
Found: TRUE

Lookup: Same lookup for CCCC[N-]CC(O)C[NH-].O=C(O)CC(=O)O.[Pt+2] (configuration not stated) , please.
Found: FALSE

Lookup: Same lookup for "CCOC(CN(C)C(=O)Nc1ccc(Cl)c(Cl)c1)OCC" , please.
Found: FALSE

Lookup: Same lookup for CSc1ncc2c(n1)-c1ccccc1OC2NC1CC1 (configuration not stated) , please.
Found: TRUE

Lookup: Same lookup for "CCc1ccc2c(-c3ccccc3)c3ccccc3c(-c3ccccc3)c2c1" , please.
Found: FALSE

Lookup: Same lookup for Cc1cccc(N2CCN(CC(O)COc3ccc4ccccc4c3)CC2)c1 (configuration not stated) , please.
Found: TRUE

Lookup: Same lookup for "CCCC(=O)Oc1ccc([N+](=O)[O-])cc1" , please.
Found: FALSE

Lookup: Same lookup for "O=c1c2cc3ccccc3cc2c(=O)n2n1CC=CC2" , please.
Found: TRUE

Lookup: Same lookup for "CC(C)(C)OC(=O)CSC#N" , please.
Found: FALSE

Lookup: Same lookup for "O=C(O)C(SC1=NNC2(C(=O)N1)c1ccccc1-c1ccccc12)SC1=NNC2(C(=O)N1)c1ccccc1-c1ccccc12" , please.
Found: TRUE
